Just for reference, paper PMC4336329 is where these values come from.

Here the recorded hERG current change (%, negative = inhibition) at 10uM is given for each entry.
Biological target: human ether-à-go-go-related gene (hERG) potassium channel (human, UniProt Q12809);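 also: peak tail current of the secondary pulse compared with the same well before compound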
Sequence (Q12809 whole entry, looked up): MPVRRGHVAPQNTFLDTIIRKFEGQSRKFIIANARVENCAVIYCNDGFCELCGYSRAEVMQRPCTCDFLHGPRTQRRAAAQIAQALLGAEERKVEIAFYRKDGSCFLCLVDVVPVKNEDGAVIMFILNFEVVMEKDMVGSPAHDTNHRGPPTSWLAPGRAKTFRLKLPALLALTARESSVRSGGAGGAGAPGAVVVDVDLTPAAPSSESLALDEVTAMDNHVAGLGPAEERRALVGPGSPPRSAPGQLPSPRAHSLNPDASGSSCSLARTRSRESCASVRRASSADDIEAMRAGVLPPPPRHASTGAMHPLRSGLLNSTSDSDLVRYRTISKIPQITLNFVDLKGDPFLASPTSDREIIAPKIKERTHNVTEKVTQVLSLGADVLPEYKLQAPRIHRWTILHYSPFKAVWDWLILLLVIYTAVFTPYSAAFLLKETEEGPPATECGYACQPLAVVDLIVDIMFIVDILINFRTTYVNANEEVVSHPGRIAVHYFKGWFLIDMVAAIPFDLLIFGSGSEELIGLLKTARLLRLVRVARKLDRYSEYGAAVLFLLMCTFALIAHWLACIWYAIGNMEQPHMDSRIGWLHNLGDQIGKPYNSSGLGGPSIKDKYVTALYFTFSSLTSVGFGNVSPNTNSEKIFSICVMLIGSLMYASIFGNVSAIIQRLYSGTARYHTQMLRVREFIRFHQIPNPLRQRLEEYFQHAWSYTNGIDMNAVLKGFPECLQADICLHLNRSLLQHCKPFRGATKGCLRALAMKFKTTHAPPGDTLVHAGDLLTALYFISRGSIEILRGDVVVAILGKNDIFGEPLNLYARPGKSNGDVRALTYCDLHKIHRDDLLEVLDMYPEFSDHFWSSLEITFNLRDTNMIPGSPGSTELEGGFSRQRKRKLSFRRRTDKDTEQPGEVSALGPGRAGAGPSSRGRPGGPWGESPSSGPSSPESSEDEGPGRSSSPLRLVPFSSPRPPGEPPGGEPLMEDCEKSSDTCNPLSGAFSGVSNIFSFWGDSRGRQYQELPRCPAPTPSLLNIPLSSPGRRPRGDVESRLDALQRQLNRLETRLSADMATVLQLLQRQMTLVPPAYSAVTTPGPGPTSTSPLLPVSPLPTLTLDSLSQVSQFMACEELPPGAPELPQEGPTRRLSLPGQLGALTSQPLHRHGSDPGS
Test: primary screen, population patch clamp on CHO cells stably expressing hERG; higher = less effect of the substance
Out of some 310,000 compounds screened, about 14,000 (4.5%) showed an effect of 50% or more. The effect is printed as a negative number. Many of the other results were omitted from the sample, so strong results are more common in it than they were.
measurement_type: hERG current change (%, negative = inhibition) at 10uM

molecule	reported
CCn1nc(C)c(CNC(=O)Nc2ccccc2C(=O)OC)c1C	13.5%
O=C(CNC(=O)c1cccnc1)N/N=C/c1cccnc1	8.4%
C1CCCCC1.OCCN1CCN(C2Cc3cc(Cl)ccc3Sc3ccc(Cl)cc32)CC1 (centres unmarked)	9.86%
CC(=O)c1c(C)[nH]c(C(=O)OCC(=O)N2CC(C)OC(C)C2)c1C (centres unmarked)	20.7%
Fc1ccc2c(c1)Sc1ccc(Cl)cc1CC2N1CCN(CCC2OCCO2)CC1 (centres unmarked)	-8.68%
CN(c1cccc(Cl)c1)S(=O)(=O)c1cccc(C(=O)NN2CCOCC2)c1	-14.1%
Cc1ccc(-n2c(=O)c3c(C)c(C)sc3n(Cc3cc(=O)n4ccccc4n3)c2=O)cc1C	-4.43%
C=CCN1CCN(C(=O)c2cc3c(s2)CCCC3)CC1	-19.3%
COc1ccc(-c2csc(NC(C)=O)n2)cc1OC	5.13%
COc1ccc(-c2csc3nc(-c4ccccc4OC)oc(=O)c23)cc1	19.1%
COc1ccc(OC)c(NC(=O)COC(=O)c2ccc(OC)c(S(=O)(=O)N3CCCC3)c2)c1	16.9%
Cl.c1ccc2c(N3CCNCC3)cccc2c1	10.9%
Cc1ccc(-n2c(=O)c3c4c(sc3n(Cc3cc(=O)n5ccccc5n3)c2=O)CCC4)cc1C	-69.1%
CCN(CC)c1ccc(N=Cc2ccc(N(CC)CC)cc2O)cc1	0.156%
COCCCN1CCN(C2Cc3ccccc3Sc3ccc(Cl)cc32)CC1.O=C(O)/C=C\C(=O)O (centres unmarked)	-73.5%
CC(C)c1ccc(NC(=O)c2cccc(NC3=NC4CS(=O)(=O)CC4S3)c2)cc1 (centres unmarked)	-11.1%
Clc1ccc2c(c1)C(N1CCNCC1)Cc1ccccc1S2.O=C(O)/C=C\C(=O)O (centres unmarked)	-54.3%
COc1ccc(-c2csc(-c3cccnc3)n2)cc1C	-3.79%
Cc1sc2c(c1C)c(=O)n(-c1ccc(Cl)cc1)c(=O)n2Cc1cc(=O)n2ccccc2n1	-36.4%
CN(C)S(=O)(=O)c1ccc(N2CCCC2)c(C(=O)Nc2nc3ccc(F)cc3s2)c1	-37.1%

====

Here the recorded hERG current change (%, negative = inhibition) at 10uM is given for each entry.
Target: human ether-à-go-go-related gene (hERG) potassium channel (human);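 also: peak tail current of the secondary pulse compared with the same well before compound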
Test: primary screen, population patch clamp on CHO cells stably expressing hERG; higher = less effect of the substance
In all, about 310,000 compounds went through this assay and about 14,000 (4.5%) showed an effect of 50% or more. Effects have a minus sign here. The sample holds strong results, similar compounds and a random draw of the others, so the mix is not that of the screen.
measurement_type: hERG current change (%, negative = inhibition) at 10uM

molecule	reported
Cn1c(=O)[nH]c(=O)c2c1nc(N1CCCCCC1)n2CCCSc1nc2ccccc2o1	-38.3%
C/C(=N/NS(=O)(=O)c1ccc(C)cc1)c1ccc(NC(=O)C(F)(F)F)cc1	10.7%
O=C(NCc1ccc2c(c1)OCO2)c1ccc(COc2cc(Cl)ccc2Cl)o1	11.7%
CC(=O)Nc1ccc(C(=O)COC(=O)CCc2ccccc2)c(F)c1	-2.03%
Cn1c(=O)[nH]c(=O)c2c1nc(Br)n2CCCSc1nc2ccccc2o1	-66.8%
CC(C)C1Cc2c(sc3c2c(=O)n(Cc2ccccc2)c2nncn32)CO1 (stereo not drawn)	-11%
Cn1c(=O)[nH]c(=O)c2c1nc(Br)n2CCCCSc1nc2ccccc2o1	-55.6%
Cn1c(=O)[nH]c(=O)c2c1nc(N1CCCCC1)n2CCSc1nc2ccccc2o1	11.1%
Cn1c(=O)[nH]c(=O)c2c1nc(N1CCCC1)n2CCCSc1nc2ccccc2o1	-25.4%
